Assignment: determine reported BI for the given compounds.
# Test system: DVL3-1
# PROTOCOL DETAILS: Holdup assay, DVL3-1
# Assay type: binding, human
*1 amine or outer side, *2 acyl side, *3 side chain or, on linkers, in order; H or OH if unused. Where a SMILES comes first, the peptide text is derived from it. The star is where a group is joined. X1 = O=C(CCCC[C@@H]1SC[C@@H]2NC(=O)N[C@@H]21)NCCCOCCOCCOCCCN*; Suc = O=C(CCC(=O)[*:2])[*:1]

Asked: Supply measured BI of CC[C@H](C)[C@H](NC(=O)[C@H](CCC(N)=O)NC(=O)[C@@H](NC(=O)[C@H](Cc1c[nH]cn1)NC(=O)[C@H](CCC(N)=O)NC(=O)[C@H](CC(=O)O)NC(=O)[C@H](CCC(=O)O)NC(=O)[C@H](CC(=O)O)NC(=O)[C@H](Cc1ccccc1)NC(=O)[C@@H]1CCCN1C(=O)CCC(=O)NCCCOCCOCCOCCCNC(=O)CCCC[C@@H]1SC[C@@H]2NC(=O)N[C@@H]21)[C@@H](C)O)C(=O)N[C@H](C(=O)N[C@@H](CCCCN)C(=O)N[C@H](C(=O)O)C(C)C)[C@@H](C)O [PTEN_13] ({X1-Suc}-PFDEDQHTQITKV-OH) in your reply.
Given back: -0.003

Asked: Supply measured BI of CC[C@H](C)[C@H](NC(=O)[C@H](CCC(N)=O)NC(=O)[C@@H](NC(=O)[C@H](Cc1c[nH]cn1)NC(=O)[C@H](CCC(N)=O)NC(=O)[C@H](CC(=O)O)NC(=O)[C@H](CCC(=O)O)NC(=O)[C@H](CC(=O)O)NC(=O)CCC(=O)NCCCOCCOCCOCCCNC(=O)CCCC[C@@H]1SC[C@@H]2NC(=O)N[C@@H]21)[C@@H](C)O)C(=O)N[C@H](C(=O)N[C@@H](CCCNC(=N)N)C(=O)N[C@H](C(=O)O)C(C)C)[C@@H](C)O [PTEN_KR] ({X1-Suc}-DEDQHTQITRV-OH) in your reply.
Given back: 0.037

Asked: Supply measured BI of CC[C@H](C)[C@H](NC(=O)[C@H](CCC(N)=O)NC(=O)[C@@H](NC(=O)[C@H](Cc1c[nH]cn1)NC(=O)[C@H](CCC(N)=O)NC(=O)[C@H](CC(=O)O)NC(=O)[C@H](CCC(=O)O)NC(=O)[C@H](CC(=O)O)NC(=O)CCC(=O)NCCCOCCOCCOCCCNC(=O)CCCC[C@@H]1SC[C@@H]2NC(=O)N[C@@H]21)[C@@H](C)O)C(=O)N[C@H](C(=O)N[C@@H](CCCCN)C(=O)N[C@H](C(=O)O)C(C)C)[C@@H](C)O in your reply.
Given back: 0.012

---

# Test system: 266 human PDZ domains (PDZome)
# PROTOCOL DETAILS: Holdup assay (chromatographic retention, PDZome-binding profile, BI)
# Parameters: key: binding intensity: 0.00 = no binding, 1.00 = maximal binding
# MEASUREMENT PARAMETERS: PDZ domain MPDZ-8
*1 amine or outer side, *2 acyl side, *3 side chain or, on linkers, in order; H or OH if unused. Where a SMILES comes first, the peptide text is derived from it. The star is where a group is joined. X1 = O=C(CCCC[C@@H]1SC[C@@H]2NC(=O)N[C@@H]21)NCCCOCCOCCOCCCN*; Suc = O=C(CCC(=O)[*:2])[*:1]
Assignment: determine reported BI for the given compounds.
Enter the number alone.

Asked: Supply measured BI of CC[C@H](C)[C@H](NC(=O)[C@H](CCC(N)=O)NC(=O)[C@@H](NC(=O)[C@H](Cc1c[nH]cn1)NC(=O)[C@H](CCC(N)=O)NC(=O)[C@H](CC(=O)O)NC(=O)[C@H](CCC(=O)O)NC(=O)[C@H](CC(=O)O)NC(=O)CCC(=O)NCCCOCCOCCOCCCNC(=O)CCCC[C@@H]1SC[C@@H]2NC(=O)N[C@@H]21)[C@@H](C)O)C(=O)N[C@H](C(=O)N[C@@H](CCCCNC(C)=O)C(=O)N[C@H](C(=O)O)C(C)C)[C@@H](C)O [PTEN_Ac] in your reply.
Given back: 0.172

Asked: Supply measured BI of CC[C@H](C)[C@H](NC(=O)[C@H](CCC(N)=O)NC(=O)[C@@H](NC(=O)[C@H](Cc1c[nH]cn1)NC(=O)[C@H](CCC(N)=O)NC(=O)[C@H](CC(=O)O)NC(=O)[C@H](CCC(=O)O)NC(=O)[C@H](CC(=O)O)NC(=O)CCC(=O)NCCCOCCOCCOCCCNC(=O)CCCC[C@@H]1SC[C@@H]2NC(=O)N[C@@H]21)[C@@H](C)O)C(=O)N[C@H](C(=O)N[C@@H](CCCNC(=N)N)C(=O)N[C@H](C(=O)O)C(C)C)[C@@H](C)O [PTEN_KR] ({X1-Suc}-DEDQHTQITRV-OH) in your reply.
Given back: 0.128

Asked: Supply measured BI of CC[C@H](C)[C@H](NC(=O)[C@H](CCC(N)=O)NC(=O)[C@@H](NC(=O)[C@H](Cc1c[nH]cn1)NC(=O)[C@H](CCC(N)=O)NC(=O)[C@H](CC(=O)O)NC(=O)[C@H](CCC(=O)O)NC(=O)[C@H](CC(=O)O)NC(=O)CCC(=O)NCCCOCCOCCOCCCNC(=O)CCCC[C@@H]1SC[C@@H]2NC(=O)N[C@@H]21)[C@@H](C)O)C(=O)N[C@H](C(=O)N[C@@H](CCCCN)C(=O)N[C@H](C(=O)O)C(C)C)[C@@H](C)O [PTEN_11] in your reply.
Given back: 0.119

Asked: Supply measured BI of CC[C@H](C)[C@H](NC(=O)[C@H](CCC(N)=O)NC(=O)[C@@H](NC(=O)[C@H](Cc1c[nH]cn1)NC(=O)[C@H](CCC(N)=O)NC(=O)[C@H](CC(=O)O)NC(=O)[C@H](CCC(=O)O)NC(=O)[C@H](CC(=O)O)NC(=O)[C@H](Cc1ccccc1)NC(=O)[C@@H]1CCCN1C(=O)CCC(=O)NCCCOCCOCCOCCCNC(=O)CCCC[C@@H]1SC[C@@H]2NC(=O)N[C@@H]21)[C@@H](C)O)C(=O)N[C@H](C(=O)N[C@@H](CCCCN)C(=O)N[C@H](C(=O)O)C(C)C)[C@@H](C)O [PTEN_13] ({X1-Suc}-PFDEDQHTQITKV-OH) in your reply.
Given back: 0.039
